// provenance: the nanobody polyreactivity screen of Harvey et al. (2022)

# method_notes: yeast display, Sf9 membrane polyspecificity reagent, FACS + sequencing; frameworks hold sequencing errors
measure_name: polyreactivity (PSR sort gate)

Previously resolved entries follow.
1) QVQLVESGGGLVQAGASLRLSCAASGRTFYRYAMGWYRQAPGKEREFVAAISNGGSNTRYADSVKGRFTISRDTAKNNVYFQMNSLKPEETAVYYCAARAYQHYNWGQGTQVTVSS = high polyreactivity
2) QVQLVESGGGLVQAGGSLRLSCAASGRTFLTNAMGWYRQAAGKERELVAAITSSGGNTYYADSVKGRFTISRDNAKNTVYLQMNSLKPEDTAVYYCAAPGYVWYGGRWVYRYYYWGQGTQVTVSS = high polyreactivity
3) QVQLVESGGGLVQAGGSLRLSCAASGRIFDQYAMGWYRQAPGKERELVAAITSGGSTYYADSVKGRFTISRDNAKNTVYLQMNSLKPEDTAVYYCAAEWQWYGYVLYKYYYWGQGTQVTVSS = high polyreactivity
4) QVQLVESGGGLVQAGGSLRLSCAASGSIFTPYAMGWYRQAPGKERELVADIDASGGGTYADSVKGRFTISRDNAKNTVYLQMNSLKPEDTAVFYCNADTGIWDYRFVDRDYWGQGTQVTVSS = low polyreactivity

Q: Look at this sequence and give its reported polyreactivity (PSR sort gate). "QVQLVESGGGLVQAGGSLRLSCADSGRTFYHYAMGWYRQAPGKERELVATITSSGGNTYYADSVKGRFTISRDNAKNTVYLQINSLKPEDTAVYYCAADWFVYQYSFGSSEYYYWGQGTQVTVSS"
Result: low polyreactivity

###

# method_notes: yeast display, Sf9 membrane polyspecificity reagent, FACS + sequencing; frameworks hold sequencing errors
measure_name: polyreactivity (PSR sort gate)

Previously resolved entries follow.
1. QVQLVESGGGLVQAGGSLRLSCAASGSIFGLYAMGWYRQAAGKERELVAAISASGGSTYYADSVKGRFTISRDNAKNTVYLQMNSLKPEDTAVYYCAVKWRGGPQRGFNYWGQGTQVTVSS = high polyreactivity
2. QVQLVESGVGLVQAAGSLRLSCAASGFIFWVNAMGWYRQAPGKEREFVAAIRSSGGNTYYADSVKGRFTISRDNAKNTVYLQMNSLKPEDTAVYYCAADSVIVTYESDYWGQGTQVTVSS = low polyreactivity
3. QVQLVESGRGLVQAGGSLRLSCAASGRIIGYYTMGWYRQAPGKERELVAAITRDGGSTYYADSVKGRFTISRDNAKNTVYLQMNSLKPEDTAVYYCTAASQSRYFYWGQGTQVTVSS = high polyreactivity
4. QVQLVESGGGLVQAGGSLRLSCAASGFTIGPNAMGWYRQPPGKERELVAAISQSGGSTYADSVKGRFTISRDNAKNTVYLQMNSLKPEDTAVYYCAAQRARVNRYGGKFGYWGQGTQVTVSS = high polyreactivity
5. QVQLVESGGGLVQAGGSLRLSCAASGRIFGVNAMGWYRQEPGKERELVAAISAGGGNTYYADSVKGRFTISRDNAKNTVYLQMNSLKPEDTAVYYCNVHRSLRMDYWGQGTQVTVSS = high polyreactivity

Q: Look at this sequence and give its reported polyreactivity (PSR sort gate). "QVQLVESVGGLVQAGGSLRLSCAASGFTFRANAMGWYRQAPGKERELVAAINWSGTSTYYADSVKGRFTISRDNAKNTVYLQMNSLKPEDTAVYYCAVLFYGAKYDYWGQGTQVTVSS"
Result: low polyreactivity

Q: Look at this sequence and give its reported polyreactivity (PSR sort gate). "QVQLVESGGGLVQAGGSLRLSCAASGNIFSDNAMGWYRQAPGKERELVAAITSGGSTIYADSVKGRFTISRDNAKNTVYLQMNSLKPEDTAVYYCAADISYRHFLFDFWGQGTQVTVSS"
Result: low polyreactivity

Q: Look at this sequence and give its reported polyreactivity (PSR sort gate). "QVQLVESGGGLVQAGGSLRLSCAASGRTFRVYAMGWYRQAPGKERELVAAITRGGSTYYADSVKGRFTISRDNAKNTVYLQMNSLKPEDTAVYYCATYSHALRYDYWGQGTQVTVSS"
Result: high polyreactivity
